Metric Name: melting point

Look over these answered cases.
- Compound: "CC(=O)ON1C(C)(C)CC(C(N)=O)C1(C)C (stereo not shown)"
  melting point: "150 to 151 °C"
- Compound: "CC1(C)CC(C(N)=O)C(C)(C)N1OC(=O)c1ccccc1 (stereo not shown)"
  melting point: "199 to 201 °C"
- Compound: "CC(=O)OC1CC(C)(C)N(OC(C)=O)C(C)(C)C1"
  melting point: "72 to 73 °C"

Next compound, please.
Prompt line: Give its melting point value. Item: CCC(=O)ON1C(C)(C)CC(C(N)=O)C1(C)C (stereo not shown)
Response line: 116 to 117 °C
